# Test system: HepG2
# assay-procedure: cell viability relative to DMSO; higher = less toxic
# experimental-setup: 72 h; 1 nM
outcome-measure: cell viability (%)
Give your result in % as a bare value.

Example compounds with recorded cell viability:
compound: CCOC(=O)OC(C)OC1=C(C(=O)Nc2ccccn2)N(C)S(=O)(=O)c2ccccc21 (stereo not drawn) [ampiroxicam]
units-label: %
cell viability: 91.9

compound: CCOC(=O)c1c(CSc2ccccc2)n(C)c2cc(Br)c(O)c(CN(C)C)c12 [arbidol]
units-label: %
cell viability: 96

The recorded cell viability for entry CCC(=O)O[C@]1(C(=O)CCl)[C@@H](C)C[C@H]2[C@@H]3CCC4=CC(=O)C=C[C@]4(C)[C@@]3(F)[C@@H](O)C[C@@]21C [clobetasol-propionate] equals 107

----------
# Tested on: Vero E6
# assay-procedure: cell viability relative to DMSO; higher = less toxic
# experimental-setup: 72 h; 10000 nM
outcome-measure: cell viability (%)
Give your result in % as a bare value.

compound: C[S+](CC[C@H](N)C(=O)O)C[C@H]1O[C@@H](n2cnc3c(N)ncnc32)[C@H](O)[C@@H]1O (some centres not stated) [ademetionine]
study-target: Vero E6
units-label: %
cell viability: 92.2

The recorded cell viability for entry COc1cc(-c2cc(-c3cccc(O)c3)cnc2N)cc(OC)c1OC equals 99

The recorded cell viability for entry Cc1nc(NC(=O)N2CCC[C@H]2C(N)=O)sc1-c1csc(C(C)(C)C)n1 [A66] equals 87.9

----------
# Test system: Calu-3
# assay-procedure: cell viability relative to DMSO; higher = less toxic
# experimental-setup: 72 h; 100 nM
Quick reference: cell viability of the listed items.
Give your result in % as a bare value.

compound: COc1cccc(NC(=O)/C=C/c2ccc(Cl)cc2)c1
cell viability / %: 93.3
//
compound: CC1(C)O[C@@H]2[C@@H](CO[C@@]3(COS(N)(=O)=O)OC(C)(C)O[C@@H]23)O1 [topiramate]
cell viability / %: 94.8
//
compound: O=C(O)c1ccc2c(c1)nc(Nc1cccc(Cl)c1)c1ccncc12 [CX-4945]
cell viability / %: 111
//
compound: O=C(NCC1CCCCN1)c1cc(OCC(F)(F)F)ccc1OCC(F)(F)F (centres undefined) [flecainide]
cell viability / %: 97.5
//
compound: NS(=O)(=O)c1cc2c(cc1Cl)NC(CC1CCCC1)NS2(=O)=O (centres undefined) [cyclopenthiazide]
cell viability / %: 97.6

The recorded cell viability for entry NCCCCCC(O)(P(=O)(O)O)P(=O)(O)O [neridronic-acid] equals 92

The recorded cell viability for entry CC1(C)S[C@@H]2[C@H](NC(=O)[C@H](N)c3ccc(O)cc3)C(=O)N2[C@H]1C(=O)O [amoxicillin] equals 110

The recorded cell viability for entry CSc1cc2c(cc1C(F)(F)F)N(C(=O)Nc1cccnc1)CC2 equals 93.2

The recorded cell viability for entry C/C=C/C=C/C(=O)O [sorbic-acid] equals 84.4

----------
# Test system: Vero E6
# assay-procedure: cell viability relative to DMSO; higher = less toxic
# experimental-setup: 72 h; 10 nM
outcome-measure: cell viability (%)
Give your result in % as a bare value.

compound: CCC[C@H](NC(=O)[C@@H]1[C@H]2CCC[C@H]2CN1C(=O)[C@@H](NC(=O)[C@@H](NC(=O)c1cnccn1)C1CCCCC1)C(C)(C)C)C(=O)C(=O)NC1CC1
outcome-measure: cell viability
units-label: %
reported-measurement: 103

The recorded cell viability for entry CC(=O)[C@H]1CC[C@H]2[C@@H]3CC=C4C[C@@H](O)CC[C@]4(C)[C@H]3CC[C@]12C equals 104

The recorded cell viability for entry C[C@@H]1NC(C)(C)CO[C@@]1(O)c1cccc(Cl)c1 equals 97.9

The recorded cell viability for entry CN(C)CCCCSC(=N)N equals 108

The recorded cell viability for entry Cc1cnc(-c2cc(N3CCN(C(=O)CCS(C)(=O)=O)CC3)ncc2Cl)c(C)c1 equals 93.4

The recorded cell viability for entry Cc1cn2c(N)c(Cl)cc(C(=O)NCC3CCN(CC(C)C)CC3)c2n1 equals 101

The recorded cell viability for entry CC(Cc1ccc(O)cc1)NCC(O)c1cc(O)cc(O)c1 (configuration not stated) equals 108

The recorded cell viability for entry O=C1[O][SbH]23[O]C(=O)C([O]2)C2[O][SbH]4([O]C(=O)C([O]4)C1[O]3)[O]C2=O [antimonyl] equals 103

The recorded cell viability for entry CCCS(=O)(=O)Nc1ccc(F)c(C(=O)c2c[nH]c3ncc(Cl)cc23)c1F equals 100

The recorded cell viability for entry Cc1nc(NC(=O)N2CCC[C@H]2C(N)=O)sc1-c1csc(C(C)(C)C)n1 equals 96.5

The recorded cell viability for entry CNC(=O)c1c(C)oc2cc(Oc3ncnc4cc(OC)c(OC)cc34)ccc12 equals 93.4

----------
# Test system: A549-ACE2
# assay-procedure: drug-induced phospholipidosis relative to tamoxifen; higher = more phospholipidosis
# experimental-setup: 0.3 µM; 48 h
Quick reference: drug-induced phospholipidosis of the listed items.

Example compounds with recorded drug-induced phospholipidosis:
compound: S=C(S)N1CCCC1 [pyrrolidine-dithiocarbamate]
study-target: A549-ACE2
drug-induced phospholipidosis: 1.79%

compound: Oc1cc(CNC(=S)/C=C/c2cc(O)c(O)c(Br)c2)cc(O)c1O
study-target: A549-ACE2
drug-induced phospholipidosis: 2.03%

compound: Cc1nc(Nc2cnn(C3CCNCC3)c2)nc2c1N(C)C(=O)c1cc3ccccc3cc1N2C
study-target: A549-ACE2
drug-induced phospholipidosis: 6.71%

compound: CC(=O)c1cc([N+](=O)[O-])c(Sc2ccc(F)cc2F)s1
study-target: A549-ACE2
drug-induced phospholipidosis: 2.73%

Next compound, please.
The recorded drug-induced phospholipidosis for entry CC(C)c1ccc(C(=O)c2cccs2)c(SCCCCCCCCN(C)C)n1 equals 4.72%

----------
Quick reference: cell viability of the listed items.
# System: U2OS
# assay-procedure: cell viability relative to DMSO; higher = less toxic
# experimental-setup: 72 h; 100 nM
Give your result in % as a bare value.

Example compounds with recorded cell viability:
compound: COc1cc(OC)c(/C=C/S(=O)(=O)Cc2ccc(OC)c(OP(=O)(O)O)c2)c(OC)c1 [briciclib]
units-label: %
cell viability: 73.4

compound: CCCn1c(=O)c2nc(C34CC5CC(CC3C5)C4)[nH]c2n(CCC)c1=O [KW-3902]
units-label: %
cell viability: 100

compound: O=[N+]([O-])O[C@@H]1CO[C@H]2[C@@H]1OC[C@@H]2O [isosorbide-mononitrate]
units-label: %
cell viability: 93.5

compound: Cn1nc(C(C)(C)C)cc1C(=O)N[C@@H](Cc1cccc(Cl)c1)C(=O)NCC#N [cathepsin-inhibitor-1]
units-label: %
cell viability: 92.8

The recorded cell viability for entry C[C@]12CC[C@H](O)CC1=CC[C@@H]1[C@@H]2CC[C@]2(C)C(n3cnc4ccccc43)=CC[C@@H]12 [galeterone] equals 93.4

The recorded cell viability for entry CCC1=C[C@@H]2CN3CCc4c([nH]c5ccccc45)[C@@](C(=O)OC)(C2)[C@@H]13 [catharanthine] equals 95.7

The recorded cell viability for entry O=C(NC1CCC1)c1ccc(C#Cc2cccc(F)c2)nc1 equals 96.3

The recorded cell viability for entry C=CCc1ccc(O)c(-c2cc(CC=C)ccc2O)c1 [magnolol] equals 99.2

The recorded cell viability for entry CC1(C)S[C@@H]2[C@H](NC(=O)[C@H](N)c3ccc(O)cc3)C(=O)N2[C@H]1C(=O)O [amoxicillin] equals 96.2

The recorded cell viability for entry Clc1ccc(C(Cn2ccnc2)OCc2c(Cl)cccc2Cl)c(Cl)c1 (configuration not stated) [isoconazole] equals 122

The recorded cell viability for entry CCn1c(=O)[nH]c2ccccc21 [1-EBIO] equals 104

The recorded cell viability for entry CCCC(O)C(CC)CO (configuration not stated) [2-ethyl-1,3-hexanediol] equals 95.9

The recorded cell viability for entry NS(=O)(=O)c1cc2c(cc1Cl)NC(CC1CCCC1)NS2(=O)=O (configuration not stated) [cyclopenthiazide] equals 98.8

The recorded cell viability for entry O=c1c(O)c(-c2ccc(O)cc2)oc2cc(O)cc(O)c12 [kaempferol] equals 97

The recorded cell viability for entry COC(=O)Nc1nc2cc(SC(C)C)ccc2[nH]1 [methiazole] equals 99.9

The recorded cell viability for entry CCN1CCN(c2ccc(Nc3cc(N(C)C(=O)Nc4c(Cl)c(OC)cc(OC)c4Cl)ncn3)cc2)CC1 [NVP-BGJ398] equals 98.1

The recorded cell viability for entry CC(CN(C)C)CN1c2ccccc2CCc2ccccc21 (configuration not stated) [trimipramine] equals 102

The recorded cell viability for entry Cc1cc(C)n(-c2cccc([C@H](CC(=O)O)CN3CC[C@@H](CCc4ccc5c(n4)NCCC5)C3)c2)n1 [integrin-antagonist-1] equals 104

The recorded cell viability for entry O=C(NOCC1CC1)c1ccc(F)c(F)c1Nc1ccc(I)cc1Cl equals 94.9

The recorded cell viability for entry CN(C)CCCOc1nn(Cc2ccccc2)c2ccccc12 [benzydamine] equals 100

The recorded cell viability for entry Cc1cc(C(=O)N2Cc3cnn(C)c3Nc3ccccc32)ccc1CNC(=O)N1CCC[C@H]1C(=S)N1CCCN(C)CC1 [TC-OT-39] equals 106

The recorded cell viability for entry O=C(O)CC1CC(c2ccccc2)=NO1 (configuration not stated) [VGX-1027] equals 97.1

The recorded cell viability for entry COc1cc(-c2cc(-c3cccc(O)c3)cnc2N)cc(OC)c1OC equals 101

The recorded cell viability for entry O=C(/C=C/c1ccccc1)NC(NC(=S)Nc1cccc2cccnc12)C(Cl)(Cl)Cl (configuration not stated) [salubrinal] equals 101

The recorded cell viability for entry Cc1nc(Nc2cnn(C3CCNCC3)c2)nc2c1N(C)C(=O)c1cc3ccccc3cc1N2C [HTH-01-015] equals 100

The recorded cell viability for entry O=S(=O)(c1cccc2c(O)nccc12)N1CCCNCC1 [hydroxyfasudil] equals 96.4

The recorded cell viability for entry c1ccc2sc(SNC3CCCCC3)nc2c1 [N-cyclohexyl-2-benzothiazolesulfenamide] equals 100
